Measured values drawn from patent US20240116985A1 for this set.

# TARGET_UNDER_TEST: full-length B-Catenin (Uniprot ID P35222) (Homo sapiens, UniProt P35222)
# Construct: 65 nM full-length B-Catenin (Uniprot ID P35222)
# Sequence (P35222 whole entry): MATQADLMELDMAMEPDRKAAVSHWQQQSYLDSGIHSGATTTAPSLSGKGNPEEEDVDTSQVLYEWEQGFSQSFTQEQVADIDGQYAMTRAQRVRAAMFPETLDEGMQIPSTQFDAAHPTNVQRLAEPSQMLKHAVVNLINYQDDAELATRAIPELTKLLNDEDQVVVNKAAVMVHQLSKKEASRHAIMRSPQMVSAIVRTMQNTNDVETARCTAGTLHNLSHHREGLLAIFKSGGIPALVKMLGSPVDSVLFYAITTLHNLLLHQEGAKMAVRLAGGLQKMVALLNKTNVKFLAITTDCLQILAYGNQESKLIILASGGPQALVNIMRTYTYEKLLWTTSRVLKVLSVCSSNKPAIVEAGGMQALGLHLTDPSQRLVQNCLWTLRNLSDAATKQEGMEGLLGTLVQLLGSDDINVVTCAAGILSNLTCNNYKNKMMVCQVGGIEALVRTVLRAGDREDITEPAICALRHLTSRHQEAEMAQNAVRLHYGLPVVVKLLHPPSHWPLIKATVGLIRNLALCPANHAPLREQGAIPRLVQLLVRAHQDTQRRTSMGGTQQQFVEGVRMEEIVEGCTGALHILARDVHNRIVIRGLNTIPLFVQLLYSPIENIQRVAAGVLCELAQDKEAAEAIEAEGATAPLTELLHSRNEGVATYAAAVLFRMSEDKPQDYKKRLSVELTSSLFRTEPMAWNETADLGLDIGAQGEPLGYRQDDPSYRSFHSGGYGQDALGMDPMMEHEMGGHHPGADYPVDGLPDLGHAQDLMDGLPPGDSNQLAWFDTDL
# ASSAY_PROCEDURE: Alphascreen binding assay (beta-catenin / biotin-TCF4 10-53)
Below, each of the molecules is paired with its reported pEC50 value.
// returns pEC50 (minus log10 of molar concentration), number only

Worked examples, 4 molecules total:
[
  {
    "MOLECULE": "CC(=O)N1CCC[C@]12CC=CCCCC1(CCCC=CCCCCCC[C@@](C)(C(=O)N[C@@H](Cc3ccccc3)C(=O)N[C@@H](Cc3c[nH]c4ccccc34)C(=O)N[C@@H](CCC(N)=O)C(N)=O)NC(=O)[C@H](C(C)C)NC(=O)[C@H](Cc3cccc(C(F)(F)F)c3)NC(=O)[C@H](C)NC(=O)[C@H](C)NC(=O)[C@H](CC(=O)O)NC(=O)[C@H](CC(=O)O)NC1=O)NC(=O)[C@H](C)NC(=O)[C@H](CC(=O)O)NC2=O (some centres unmarked) [I-238]",
    "MEASURED_QUANTITY": "pEC50",
    "REPORTED": 6.57
  },
  {
    "MOLECULE": "CC[C@H](C)[C@H](NC(=O)[C@H](CC(=O)O)NC(=O)[C@H](C)NC(C)=O)C(=O)N[C@]1(C)CCN(C)C(=O)OCC=CCCCCC[C@@](C)(C(=O)N[C@@H](Cc2ccccc2)C(=O)N[C@@H](Cc2c[nH]c3ccccc23)C(=O)N[C@@H](Cc2c[nH]cn2)C(N)=O)NC(=O)[C@H](CCC(N)=O)NC(=O)[C@H](Cc2ccccc2)NC(=O)[C@H](C)NC(=O)[C@H](C)NC(=O)[C@H](CCC(=O)O)NC(=O)[C@H](CC(=O)O)NC1=O [I-66]",
    "MEASURED_QUANTITY": "pEC50",
    "REPORTED": 6.76
  },
  {
    "MOLECULE": "CC(=O)N[C@@H](Cc1ccccc1)C(=O)N[C@@H](CC(=O)O)C(=O)N[C@@H](C)C(=O)N[C@]1(C)CCCCCCC=CCOC(=O)N2CC[C@@](C(=O)N[C@@H](Cc3ccccc3)C(=O)N[C@@H](Cc3c[nH]c4ccccc34)C(=O)N[C@@H](CCC(N)=O)C(N)=O)(C2)NC(=O)[C@H](C(C)C)NC(=O)[C@H](Cc2ccc(F)c(F)c2)NC(=O)[C@H](C)NC(=O)[C@H](C)NC(=O)[C@H](CC(=O)O)NC(=O)[C@H](CC(=O)O)NC1=O",
    "MEASURED_QUANTITY": "pEC50",
    "REPORTED": 5.40
  },
  {
    "MOLECULE": "CC[C@H](C)[C@H](NC(=O)[C@H](CC(=O)O)NC(=O)[C@H](C)NC(C)=O)C(=O)N[C@]1(C)CCN(C)C(=O)OCC=CCCCCC[C@@](C)(C(=O)N[C@@H](Cc2ccccc2)C(=O)N[C@@H](Cc2c[nH]c3ccccc23)C(=O)N[C@@H](Cc2c[nH]cn2)C(N)=O)NC(=O)[C@H](CCC(N)=O)NC(=O)[C@H](Cc2ccccc2)NC(=O)[C@H](C)NC(=O)[C@H](C)NC(=O)[C@H](CCC(=O)O)NC(=O)[C@H](CC(=O)O)NC1=O [I-67]",
    "MEASURED_QUANTITY": "pEC50",
    "REPORTED": 6.81
  }
]

The molecule CC[C@H](C)[C@@H]1NC(=O)[C@H](CC(=O)O)NC(=O)[C@]2(CC=CCCCC3(CCCC=CCOC(=O)N(C)CCC[C@@](C)(C(=O)N[C@@H](Cc4ccccc4)C(=O)N[C@@H](Cc4c[nH]c5ccccc45)C(=O)N[C@@H](Cc4c[nH]cn4)C(N)=O)NC(=O)[C@H](CCC(N)=O)NC(=O)[C@H](Cc4ccccc4)NC(=O)[C@H](C)NC(=O)[C@H](C)NC(=O)[C@H](CC(=O)O)NC(=O)[C@H](CC(=O)O)NC3=O)NC1=O)CCCN2C(C)=O (some centres unmarked) [I-190] , tested on full-length B-Catenin (Uniprot ID P35222) (Homo sapiens, UniProt P35222), showed pEC50 of 7.03

====

# TARGET_UNDER_TEST: beta-catenin/TCF4 engagement (Homo sapiens)
# Construct: expressed in transfected cells; host or cells: HEK293
# ASSAY_PROCEDURE: Nano-BRET target engagement assay (B-cat-Halo & TCF4-Luc in HEK293 cells)
# Type: cell-based
# RUN_PARAMETERS: absolute IC50; read-out: NanoBRET Abs IC50
Below, each of the molecules is paired with its reported pIC50 value.
// returns pIC50 (minus log10 of molar concentration), number only

[
  {
    "MOLECULE": "CC(=O)N1CCC[C@]12CC=CCCCC1(CCCC=CCCCOC(=O)N3CC[C@@](C(=O)N[C@@H](Cc4ccsc4)C(=O)N[C@@H](Cc4csc5ccccc45)C(=O)N[C@@H](CCO)C(N)=O)(C3)NC(=O)[C@H](CC(C)C)NC(=O)[C@H](Cc3ccccc3)NC(=O)[C@H](C)NC(=O)[C@H](C)NC(=O)[C@H](CC(=O)O)NC(=O)[C@H](CC(=O)O)NC1=O)NC(=O)[C@H](CC1CCCCC1)NC(=O)[C@H](CC(=O)O)NC2=O (stereo partly drawn)",
    "pIC50": 4.76
  }
]

CC(=O)N1CCC[C@]12CC=CCCCC1(CCCC=CCCCOC(=O)N3CC[C@@](C(=O)N[C@@H](Cc4ccccc4Cl)C(=O)N[C@@H](Cc4csc5ccccc45)C(=O)N[C@@H](CCO)C(N)=O)(C3)NC(=O)[C@H](CO)NC(=O)[C@H](Cc3ccccc3)NC(=O)[C@H](C)NC(=O)[C@H](C)NC(=O)[C@H](CC(=O)O)NC(=O)[C@H](CC(=O)O)NC1=O)NC(=O)[C@H](Cc1ccccc1)NC(=O)[C@H](CC(=O)O)NC2=O (stereo partly drawn) yielded pIC50 of 4.48

CC(=O)N1CCC[C@]12CC=CCCCC1(CCCC=CCCCOC(=O)N3CC[C@@](C(=O)N[C@@H](Cc4ccccc4Cl)C(=O)N[C@@H](Cc4csc5ccccc45)C(=O)N[C@@H](CO)C(N)=O)(C3)NC(=O)[C@H]([C@@H](C)O)NC(=O)[C@H](Cc3ccccc3)NC(=O)[C@H](CC(C)C)NC(=O)[C@H](C)NC(=O)[C@H](CC(=O)O)NC(=O)[C@H](CC(=O)O)NC1=O)NC(=O)[C@H](CC1CCCCC1)NC(=O)[C@H](CC(=O)O)NC2=O (stereo partly drawn) yielded pIC50 of 4.60

====

Below, each of the compounds is paired with its reported IC50 value.
# TARGET_UNDER_TEST: full-length beta-Catenin (Uniprot ID P35222) (Homo sapiens, UniProt P35222)
# Construct: 10 nM full-length beta-Catenin (Uniprot ID P35222)
# ASSAY_PROCEDURE: Fluorescence polarization IC50 (beta-catenin / 5FAM-TCF4 10-53 competition)
# Assay type: binding
# RUN_PARAMETERS: fluorescence polarization; read-out: beta-Catenin FP IC50
Just the number in nM, nothing appended.

Worked examples, 3 compounds total:
[
  {
    "COMPOUND": "CC(=O)N1CCC[C@]12CC=CCCCC1(CCCC=CCCCOC(=O)N3CC[C@@](C(=O)N[C@@H](Cc4ccsc4)C(=O)N[C@@H](Cc4csc5ccccc45)C(=O)N[C@@H](CCC(N)=O)C(N)=O)(C3)NC(=O)[C@H](CC(C)C)NC(=O)[C@H](Cc3ccc(C#N)cc3)NC(=O)[C@H](C)NC(=O)[C@H](C)NC(=O)[C@H](CC(=O)O)NC(=O)[C@H](CC(=O)O)NC1=O)NC(=O)[C@H](CC(C)(C)C)NC(=O)[C@H](CC(=O)O)NC2=O (some centres unmarked) [I-1202]",
    "TARGET_UNDER_TEST": "full-length beta-Catenin (Uniprot ID P35222) (Homo sapiens, UniProt P35222)",
    "U": "nM",
    "REPORTED": 16
  },
  {
    "COMPOUND": "CC(=O)N1CCC[C@]12CC=CCCCC1(CCCC=CCCCCCC[C@@](C)(C(=O)N[C@@H](Cc3ccccc3)C(=O)N[C@@H](Cc3csc4ccccc34)C(=O)N[C@@H](CO)C(N)=O)NC(=O)[C@H](CC(N)=O)NC(=O)[C@H](Cc3ccccc3)NC(=O)[C@H](C)NC(=O)[C@H](C)NC(=O)[C@H](CCC(=O)O)NC(=O)[C@H](CC(=O)O)NC1=O)NC(=O)[C@H](CC(C)C)NC(=O)[C@H](CC(=O)O)NC2=O (some centres unmarked) [I-750]",
    "TARGET_UNDER_TEST": "full-length beta-Catenin (Uniprot ID P35222) (Homo sapiens, UniProt P35222)",
    "U": "nM",
    "REPORTED": 43
  },
  {
    "COMPOUND": "CC(=O)N1CCC[C@]12CC=CCCCC1(CCCC=CCCCOC(=O)N3CC[C@@](C(=O)N[C@@H](Cc4ccccc4C(F)(F)F)C(=O)N[C@H](C(=O)N[C@@H](CCC(N)=O)C(N)=O)[C@@H](C)c4ccc5ccccc5c4)(C3)NC(=O)[C@H](CC(C)C)NC(=O)[C@H](Cc3ccccc3)NC(=O)[C@H](C)NC(=O)[C@H](C)NC(=O)[C@H](Cc3cccc(C(=O)O)c3)NC(=O)[C@H](CC(=O)O)NC1=O)NC(=O)[C@H](CC(C)(C)C)NC(=O)[C@H](CC(=O)O)NC2=O (some centres unmarked) [I-2464]",
    "TARGET_UNDER_TEST": "full-length beta-Catenin (Uniprot ID P35222) (Homo sapiens, UniProt P35222)",
    "U": "nM",
    "REPORTED": 79
  }
]

The compound CC(=O)N1CCC[C@]12CC=CCCCC1(CCCC=CCCCOC(=O)N3CC[C@@](C(=O)N[C@@H](Cc4ccccc4Cl)C(=O)N[C@@H](Cc4csc5ccccc45)C(=O)N[C@@H](C)CO)(C3)NC(=O)[C@H]([C@@H](C)O)NC(=O)[C@H](Cc3ccccc3)NC(=O)[C@H](C)NC(=O)[C@H](C)NC(=O)[C@H](CN(CC(=O)O)CC(F)(F)F)NC(=O)[C@H](CC(=O)O)NC1=O)NC(=O)[C@H](CC(C)(C)C)NC(=O)[C@H](CC(=O)O)NC2=O (some centres unmarked) [I-1242] , tested on full-length beta-Catenin (Uniprot ID P35222) (Homo sapiens, UniProt P35222), showed IC50 of 30

The compound CC(=O)N1CCC[C@]12CC=CCCCC1(CCCC=CCCCCCC[C@@](C)(C(=O)N[C@@H](Cc3ccccc3)C(=O)N[C@@H](Cc3csc4ccccc34)C(=O)N[C@@H](CCC(N)=O)C(N)=O)NC(=O)[C@H](CCO)NC(=O)[C@H](Cc3ccccc3)NC(=O)[C@H](C)NC(=O)[C@H](C)NC(=O)[C@H](CCC(=O)O)NC(=O)[C@H](CC(=O)O)NC1=O)NC(=O)[C@H](CCC(C)C)NC(=O)[C@H](CC(=O)O)NC2=O (some centres unmarked) [I-1537] , tested on full-length beta-Catenin (Uniprot ID P35222) (Homo sapiens, UniProt P35222), showed IC50 of 31
